Molecular target: MMP-13 (Homo sapiens)
Construct: catalytic domain (^104Tyr˜^267Gly) was amplified with RT-PCR; His-tag; enterokinase digestion-site
Assay: Assay for inhibitory activities on MMPs (fluorogenic peptide substrate), MMP-13
Experimental: In regard to MMP-13, mRNA was prepared from carcinoma cell SW1353 derived from human cartilage stimulate by IL-1 and TNF, and catalytic domain (^[…]) was amplified with RT-PCR. […] The enzymatic activity on MMPs was analyzed by the method described in “C. […] The value of inhibitory activity against MMP-2, MMP-8, MMP-9, MMP-12, and MMP-13 measured by above mentioned methods are shown in Table 25 and 26.
assay-metric: pIC50
One number for each entry, as −log10 of the molar value.

COc1ccc2cc(C#Cc3ccc(-c4ccc(S(=O)(=O)N[C@H](C(=O)O)C(C)C)cc4)cc3)ccc2c1 [III-21] : 8.24
CC(C)[C@@H](NS(=O)(=O)c1ccc(-c2ccc(C#Cc3ccc4ccccc4c3)cc2)cc1)C(=O)O [III-4] : 8.34
O=C(Nc1ccc(-c2ccc(S(=O)(=O)N[C@H](Cc3ccccc3)C(=O)O)cc2)cc1)c1cc2ccccc2s1 [VI-47] : 6.87
COc1ccc2cc(C#Cc3ccc(-c4ccc(S(=O)(=O)N[C@@H](CO)C(=O)O)cc4)cc3)ccc2c1 [III-45] : 7.71
Cc1ccc(C(=O)Nc2ccc(-c3ccc(S(=O)(=O)N[C@H](C)C(=O)O)cc3)cc2)cc1 [VI-17] : 7.45
C[C@@H](NS(=O)(=O)c1ccc(-c2ccc(COc3ccc4ccccc4c3)cc2)cc1)C(=O)O [VII-11] : 7.79
CSCC[C@H](NS(=O)(=O)c1ccc(-c2ccc(C#Cc3ccc4ccccc4c3)cc2)cc1)C(=O)O [III-10] : 8.54
COc1ccc2cc(C#Cc3ccc(-c4ccc(S(=O)(=O)N[C@H](CSC)C(=O)O)cc4)cc3)ccc2c1 [III-49] : 7.29

Batch of 7 molecules: report pIC50 for each.
1. COc1ccc(C(=O)Nc2ccc(-c3ccc(S(=O)(=O)N[C@H](Cc4ccccc4)C(=O)O)cc3)cc2)cc1OC [VI-8]
2. CC(C)Oc1cccc(C#Cc2ccc(-c3ccc(S(=O)(=O)N[C@@H](C)C(=O)O)cc3)cc2)c1 [III-60]
3. O=C(C#Cc1ccccc1)Nc1ccc(-c2ccc(S(=O)(=O)N[C@H](Cc3ccccc3)C(=O)O)cc2)cc1 [VI-13]
4. Cc1nc2cc(C#Cc3ccc(-c4ccc(S(=O)(=O)N[C@@H](C)C(=O)O)cc4)cc3)ccc2s1 [III-54]
5. COc1ccc(C(=O)Nc2ccc(-c3ccc(S(=O)(=O)N[C@@H](CCSC)C(=O)O)cc3)cc2)cc1OC [VI-35]
6. COc1ccc2cc(C#Cc3ccc(-c4ccc(S(=O)(=O)N[C@@H](Cc5c[nH]c6ccccc56)C(=O)O)cc4)cc3)ccc2c1 [III-31]
7. COc1ccc(C(=O)Nc2ccc(-c3ccc(S(=O)(=O)N[C@H](C)C(=O)O)cc3)cc2)cc1 [VI-15]

1: 7.57; 2: 7.01; 3: 7.57; 4: 7.95; 5: 7.16; 6: 7.70; 7: 7.26

Batch of 2 molecules: report pIC50 for each.
1. CCC(C)[C@H](NS(=O)(=O)c1ccc(-c2ccc(NC(=O)c3ccc4ccccc4c3)cc2)cc1)C(=O)O (some centres unmarked) [VI-43]
2. O=C(Nc1ccc(-c2ccc(S(=O)(=O)N[C@H](Cc3ccccc3)C(=O)O)cc2)cc1)c1ccc2ccccc2c1 [VI-10]

1: 7.86; 2: 7.67
